# Target: Factor X (FX), P00742
# Sequence (P00742 whole entry, looked up): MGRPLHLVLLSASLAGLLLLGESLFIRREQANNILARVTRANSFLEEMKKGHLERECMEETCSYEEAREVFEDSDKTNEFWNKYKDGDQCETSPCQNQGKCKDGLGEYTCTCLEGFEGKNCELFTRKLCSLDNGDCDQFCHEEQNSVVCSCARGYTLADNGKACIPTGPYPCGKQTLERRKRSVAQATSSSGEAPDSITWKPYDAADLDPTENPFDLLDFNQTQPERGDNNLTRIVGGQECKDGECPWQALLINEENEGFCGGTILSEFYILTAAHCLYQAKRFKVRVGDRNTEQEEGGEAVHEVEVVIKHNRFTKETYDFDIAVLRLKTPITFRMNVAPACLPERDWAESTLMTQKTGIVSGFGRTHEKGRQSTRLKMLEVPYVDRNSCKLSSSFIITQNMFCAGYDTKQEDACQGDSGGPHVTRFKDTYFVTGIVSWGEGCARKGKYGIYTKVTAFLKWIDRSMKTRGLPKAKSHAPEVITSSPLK
Reported values of kcat/KM for individual entries
Numbers only; they are read as M⁻¹ s⁻¹.

Protein	kcat/KM / M⁻¹ s⁻¹
FIXa-D104N/K106S/I251S/R318Y/R338E/R403E/E410N (protein) chain 1: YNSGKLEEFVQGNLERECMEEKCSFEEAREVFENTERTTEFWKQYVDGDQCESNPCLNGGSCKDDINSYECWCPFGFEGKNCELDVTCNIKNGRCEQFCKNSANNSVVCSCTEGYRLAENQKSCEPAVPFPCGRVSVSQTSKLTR chain 2: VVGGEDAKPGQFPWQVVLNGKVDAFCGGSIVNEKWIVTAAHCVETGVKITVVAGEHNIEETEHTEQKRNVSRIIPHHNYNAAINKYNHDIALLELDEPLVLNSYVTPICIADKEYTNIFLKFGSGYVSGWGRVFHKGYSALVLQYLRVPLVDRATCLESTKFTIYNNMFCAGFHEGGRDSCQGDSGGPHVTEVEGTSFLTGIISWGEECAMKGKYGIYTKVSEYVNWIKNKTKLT	1.2e+08

Next protein, please.
**Query** So what's the measured kcat/KM for this one? FIXa variant Y155F/R318Y/R338E/E410N (protein) chain 1: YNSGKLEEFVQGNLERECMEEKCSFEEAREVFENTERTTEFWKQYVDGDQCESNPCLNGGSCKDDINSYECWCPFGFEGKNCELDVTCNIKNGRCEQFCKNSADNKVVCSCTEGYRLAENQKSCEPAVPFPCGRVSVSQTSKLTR chain 2: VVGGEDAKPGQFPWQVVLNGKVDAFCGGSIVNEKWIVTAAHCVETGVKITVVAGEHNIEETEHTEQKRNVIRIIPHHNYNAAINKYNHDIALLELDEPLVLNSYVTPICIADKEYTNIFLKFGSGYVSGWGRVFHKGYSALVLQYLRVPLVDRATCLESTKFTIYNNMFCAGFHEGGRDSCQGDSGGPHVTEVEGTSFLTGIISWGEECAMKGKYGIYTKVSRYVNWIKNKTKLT
**Result** 3.7e+08
